# System: A549
# Procedure Summary: Cell proliferation assay (MTT/CCK-8), A549
# Study Conditions: Homo sapiens, A549, 48 h, read-out: IC50 A549

>  <Chem Smiles>
O=C(NNc1ncnc2ccccc12)c1cnccn1

>  <IC50>
> 100 µM

$$$$
>  <Chem Smiles>
COc1cccc2c(NNC(=O)c3cnccn3)ncnc12

>  <IC50>
> 100 µM

$$$$
>  <Chem Smiles>
COc1cccc2c(NNC(=O)c3nccnc3N)ncnc12

>  <IC50>
> 100 µM

$$$$

====

The molecules listed here are annotated with their pKd.
# Target: His6-p97 (Homo sapiens, UniProt P55072)
# Sequence (P55072 whole entry): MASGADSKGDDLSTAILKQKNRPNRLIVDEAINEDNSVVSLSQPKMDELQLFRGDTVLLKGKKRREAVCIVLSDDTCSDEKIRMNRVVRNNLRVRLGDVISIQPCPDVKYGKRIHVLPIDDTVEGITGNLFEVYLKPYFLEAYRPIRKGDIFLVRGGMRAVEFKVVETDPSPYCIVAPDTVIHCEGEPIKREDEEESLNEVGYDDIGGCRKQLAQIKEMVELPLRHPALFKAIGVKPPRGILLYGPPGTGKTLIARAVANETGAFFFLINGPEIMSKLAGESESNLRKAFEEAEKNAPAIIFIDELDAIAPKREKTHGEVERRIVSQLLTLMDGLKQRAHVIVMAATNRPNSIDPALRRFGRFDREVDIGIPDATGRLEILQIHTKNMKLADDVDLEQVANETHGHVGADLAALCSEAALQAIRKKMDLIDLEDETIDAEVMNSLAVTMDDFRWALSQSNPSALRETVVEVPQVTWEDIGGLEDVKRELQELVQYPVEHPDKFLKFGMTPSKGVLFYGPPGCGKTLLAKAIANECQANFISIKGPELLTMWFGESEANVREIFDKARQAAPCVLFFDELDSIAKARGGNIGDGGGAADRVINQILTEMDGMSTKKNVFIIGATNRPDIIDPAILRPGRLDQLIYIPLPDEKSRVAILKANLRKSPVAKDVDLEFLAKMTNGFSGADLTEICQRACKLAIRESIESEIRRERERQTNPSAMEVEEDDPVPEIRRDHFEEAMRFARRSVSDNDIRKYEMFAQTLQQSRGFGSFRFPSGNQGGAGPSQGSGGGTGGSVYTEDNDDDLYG
pKd: −log10 of the molar value.

>  <Molecule>
NC(=O)/C=C/c1ccc(Nc2nc(NCc3cnccn3)c3ccccc3n2)cc1 [Compound 11a]

>  <pKd>
< 5.00

$$$$
>  <Molecule>
COc1cccc2c(NCc3cnccn3)nc(Nc3ccc(/C=C/C(=O)O)cc3)nc12 [Compound 10b]

>  <pKd>
< 5.00

$$$$
>  <Molecule>
COc1cccc2c(NCc3cnccn3)nc(Nc3ccc(/C=C/C(N)=O)cc3)nc12 [Compound 11b]

>  <pKd>
< 5.00

$$$$
